The measurements presented in this section are drawn from PubChem BioAssay (NCI).

# System: HOP-62 NSCLC
# EXPERIMENTAL_DETAILS: NCI tumour cell line growth inhibition, 48 h; in the data active = GI50 below about 0.43 µM; inactive = the rest
Outcome codes: active, inactive

{"COMPOUND": "CCC1(O)C(=O)OCc2c1cc1n(c2=O)Cc2cc3c(NC(=O)CN)cccc3nc2-1 (stereo not given)", "CLASS_ASSIGNMENT": "active"}
{"COMPOUND": "CC1(C)CC(=O)C2=C(C1)OC(N)=C(c1nc(-c3ccccc3)cs1)C2c1ccc(Br)cc1 (stereo not given)", "CLASS_ASSIGNMENT": "inactive"}
{"COMPOUND": "O=C(CCCCCCN1CC(=O)N2[C@@H](c3ccc(Cl)c(Cl)c3)c3[nH]c4ccccc4c3C[C@H]2C1=O)NO", "CLASS_ASSIGNMENT": "inactive"}
{"COMPOUND": "N#CCCN1C/C(=C/c2ccc(Cl)cc2)C(=O)/C(=C/c2ccc(Cl)cc2)C1", "CLASS_ASSIGNMENT": "inactive"}
{"COMPOUND": "NS(=O)(=O)c1ccc(-c2cc3ccncc3cc2OCc2ccccc2)cc1", "CLASS_ASSIGNMENT": "inactive"}
{"COMPOUND": "COC(=O)c1cncc(/C=C/c2c(C)cc(O)cc2C)c1", "CLASS_ASSIGNMENT": "inactive"}
{"COMPOUND": "COC(=O)c1cc2c(cc1Cl)SC1=NN(C)C(N(C)C)N1S2(=O)=O (stereo not given)", "CLASS_ASSIGNMENT": "inactive"}
{"COMPOUND": "Cc1cc(N(CCCNc2ccnc3cc(Cl)ccc23)Cc2ccco2)nc(N2CCN(C)CC2)n1", "CLASS_ASSIGNMENT": "inactive"}
{"COMPOUND": "C/C(=N/N=C(\\[O-])c1ccncc1)C(F)(F)F.C/C(=N\\N=C(/[O-])c1ccncc1)C(F)(F)F.[Ni+2]", "CLASS_ASSIGNMENT": "inactive"}
{"COMPOUND": "CSc1nc2sc3c(c2c(=O)n1-c1ccc(C(C)C)cc1)CCC(=O)C3", "CLASS_ASSIGNMENT": "inactive"}
{"COMPOUND": "C=C1CCC2[C@@H](CCC3[C@]2(C)CCC[C@]3(C)C(=O)OC)C1CC=O (stereo not given in full)", "CLASS_ASSIGNMENT": "inactive"}
{"COMPOUND": "Oc1cccc2ccc(N/N=C/c3cc(CN4CCOCC4)c(O)c4ncccc34)nc12", "CLASS_ASSIGNMENT": "active"}
{"COMPOUND": "CCCCCO/N=C\\c1c2c(O)c3c(O)c(C)c4c(c3c1O)C(=O)C(C)(O/C=C\\C(OC)C(C)C(OC(C)=O)C(C)C(O)C(C)C(O)C(C)/C=C\\C=C(\\C)C(=O)N2)O4 (stereo not given)", "CLASS_ASSIGNMENT": "inactive"}
{"COMPOUND": "Cc1cc(C#Cc2ccc(C(C)(C)C)cc2)ccc1-n1c(/C=C/c2ccc(O)cc2O)nc2ccccc2c1=O", "CLASS_ASSIGNMENT": "inactive"}
{"COMPOUND": "COc1cc2nc(-c3cc(F)ccc3O)nc(N[C@@H]3CNC[C@H]3C(C)(C)O)c2cc1OC", "CLASS_ASSIGNMENT": "inactive"}
